# System tested: human ether-à-go-go-related gene (hERG) potassium channel (human);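 also: peak tail current of the secondary pulse compared with the same well before compound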
# Method description: primary screen, population patch clamp on CHO cells stably expressing hERG; higher = less effect of the substance
Hit rate of the full screen: of about 310,000 compounds, about 14,000 (4.5%) showed an effect of 50% or more. The effect is printed as a negative number. Shown is part of a subset that was picked to be rich in strong results.
Result type: hERG current change (%, negative = inhibition) at 10uM (%)
Give the value, in units of %, as a plain number.

See these solved cases before continuing.
[
  {
    "Molecule": "COc1ccc(/C=N/Nc2nnc(C)n2N)cc1OC(C)=O.Cl",
    "System tested": "human ether-à-go-go-related gene (hERG) potassium channel (human)",
    "Unit of measurement": "%",
    "Experimental result": 14.3
  },
  {
    "Molecule": "O=C(/C=C/Nc1ccc(S(=O)(=O)Nc2cnc3ccccc3n2)cc1)c1cccnc1",
    "System tested": "human ether-à-go-go-related gene (hERG) potassium channel (human)",
    "Unit of measurement": "%",
    "Experimental result": -12.9
  },
  {
    "Molecule": "CCN(CC)c1ccc(NC(=O)c2ccc(=O)[nH]c2)cc1S(=O)(=O)Nc1ccc(OC)cc1",
    "System tested": "human ether-à-go-go-related gene (hERG) potassium channel (human)",
    "Unit of measurement": "%",
    "Experimental result": -7.22
  },
  {
    "Molecule": "CN1/C(=C\\C=C(/C#N)C(=O)Nc2ccc(Cl)cc2)C(C)(C)c2ccccc21",
    "System tested": "human ether-à-go-go-related gene (hERG) potassium channel (human)",
    "Unit of measurement": "%",
    "Experimental result": 13
  }
]

**Query** Lab request: please report hERG current change (%, negative = inhibition) at 10uM under test system human ether-à-go-go-related gene (hERG) potassium channel (human) for Nc1nc(NCCCN2CCOCC2)nc(Nc2ccc(Cl)cc2)c1[N+](=O)[O-];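 also: peak tail current of the secondary pulse compared with the same well before compound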
**Result** 7.65

**Query** What do you have for CCOC(=O)C1(CC2CC2)CCN(C(=O)c2ocnc2C)CC1 ?
**Result** 7.25

**Query** And then Nc1nc(NCCCN2CCOCC2)nc(Nc2ccc(F)cc2)c1[N+](=O)[O-] , what is it?
**Result** -58.6

**Query** Consider next the molecule CCOC(=O)C1(CCCc2ccccc2)CCN(C(=O)c2cc(C)nc(C)n2)CC1 in the same way.
**Result** -16.4

**Query** And then CCOC(=O)C1(CCc2ccccc2)CCN(C(=O)Cc2nonc2C)CC1 , what is it?
**Result** -21.4

**Query** Now consider CCOc1cc(Br)ccc1S(=O)(=O)N1CCC(C(N)=O)CC1 .
**Result** -5.26

---

# System tested: human ether-à-go-go-related gene (hERG) potassium channel (human, UniProt Q12809);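 also: peak tail current of the secondary pulse compared with the same well before compound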
# Sequence (Q12809 whole entry, looked up): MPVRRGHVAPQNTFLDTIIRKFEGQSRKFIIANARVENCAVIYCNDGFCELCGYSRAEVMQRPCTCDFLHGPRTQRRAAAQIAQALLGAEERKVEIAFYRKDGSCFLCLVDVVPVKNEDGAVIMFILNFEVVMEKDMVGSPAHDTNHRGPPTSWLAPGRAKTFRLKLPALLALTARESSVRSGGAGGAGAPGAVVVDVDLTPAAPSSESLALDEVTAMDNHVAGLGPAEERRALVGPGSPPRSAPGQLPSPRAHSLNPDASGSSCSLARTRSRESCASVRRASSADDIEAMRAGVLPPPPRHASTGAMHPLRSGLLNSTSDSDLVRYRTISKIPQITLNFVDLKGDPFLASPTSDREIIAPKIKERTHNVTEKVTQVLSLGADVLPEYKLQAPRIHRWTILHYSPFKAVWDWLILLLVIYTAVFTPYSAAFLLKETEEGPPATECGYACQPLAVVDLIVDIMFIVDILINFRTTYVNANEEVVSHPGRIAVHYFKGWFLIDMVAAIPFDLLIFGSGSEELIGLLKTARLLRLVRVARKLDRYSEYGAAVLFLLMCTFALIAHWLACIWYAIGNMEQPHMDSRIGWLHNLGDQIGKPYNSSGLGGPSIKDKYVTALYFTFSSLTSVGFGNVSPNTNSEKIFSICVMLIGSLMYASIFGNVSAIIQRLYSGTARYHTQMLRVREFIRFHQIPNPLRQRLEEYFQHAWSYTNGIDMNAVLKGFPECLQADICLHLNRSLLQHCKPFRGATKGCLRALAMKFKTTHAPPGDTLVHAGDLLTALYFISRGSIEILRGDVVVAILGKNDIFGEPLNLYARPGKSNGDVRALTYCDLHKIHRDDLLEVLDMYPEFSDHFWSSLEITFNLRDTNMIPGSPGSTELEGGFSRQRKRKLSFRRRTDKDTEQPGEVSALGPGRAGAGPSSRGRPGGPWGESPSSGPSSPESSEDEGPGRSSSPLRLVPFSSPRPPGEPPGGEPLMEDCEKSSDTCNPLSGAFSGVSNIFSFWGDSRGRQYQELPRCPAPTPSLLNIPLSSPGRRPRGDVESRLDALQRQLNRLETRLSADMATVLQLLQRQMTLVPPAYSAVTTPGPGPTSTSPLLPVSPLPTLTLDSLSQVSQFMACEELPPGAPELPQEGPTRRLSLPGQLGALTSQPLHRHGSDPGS
# Method description: primary screen, population patch clamp on CHO cells stably expressing hERG; higher = less effect of the substance
Among all 310,000 compounds or so, about 14,000 (4.5%) showed an effect of 50% or more. The effect is printed as a negative number. This excerpt belongs to a sample that is enriched for strong results.
hERG current change (%, negative = inhibition) at 10uM for assorted molecules
Give a bare numeral; the unit % is implied.

Would you please look over these solved cases?
[
  {
    "Molecule": "O=C(Nc1ccccc1C(=O)OCC(=O)N1CCc2ccccc2C1)c1ccco1",
    "Unit of measurement": "%",
    "Experimental result": -30.9
  },
  {
    "Molecule": "CC1C/C(=N\\NC(=S)NC(C)C)CC(C)(C)C1 (stereo not shown)",
    "Unit of measurement": "%",
    "Experimental result": 9.06
  },
  {
    "Molecule": "CC(C)c1nc(SCC(=O)N2CCCCCC2)c2c(=O)n(C)c(=O)n(C)c2n1",
    "Unit of measurement": "%",
    "Experimental result": -11.2
  },
  {
    "Molecule": "CN(C)C(=O)COC(=O)c1ccccc1NC(=O)c1ccco1",
    "Unit of measurement": "%",
    "Experimental result": -15.7
  },
  {
    "Molecule": "O=C(COC(=O)c1ccccc1NC(=O)c1ccco1)NC1CC1",
    "Unit of measurement": "%",
    "Experimental result": -19
  },
  {
    "Molecule": "CCOCc1[nH]c(=S)[nH]c(=O)c1Cc1ccc(OCC)cc1",
    "Unit of measurement": "%",
    "Experimental result": 9.49
  }
]

**Query** Quick check: hERG current change (%, negative = inhibition) at 10uM on human ether-à-go-go-related gene (hERG) potassium channel (human, UniProt Q12809), item CCOCc1[nH]c(=S)[nH]c(=O)c1Cc1ccc(OC(C)C)cc1 ?
**Result** -58.8

**Query** And CC1CCN(C(=O)COC(=O)c2ccccc2NC(=O)c2ccco2)CC1 ?
**Result** -60.9

**Query** Same read-out for CNC(=O)COC(=O)c1ccccc1NC(=O)c1ccco1 ?
**Result** -52.1

**Query** O=C(Nc1ccc(Cl)cc1)[C@@H]1[C@@H]2C(=O)N(c3cccc(F)c3)C(=O)[C@@H]2[C@H]2C=CC=NN21 ?
**Result** -9.36

Cited source for all entries: paper PMC4336329
